// mass density lookup, one value per entry
# condition_info: 328.15 K; 55000 kPa; Liquid; Vibrating tube method
Write the number in kg/m3 without appending the unit.

Consider the following illustrative entries.
# structure_string, mass density / kg/m3
data = [
    ("c1ccsc1", 1069.6),
    ("Cc1cccs1", 1026.73),
    ("Cc1ccsc1", 1027.68),
]

Below: the item to evaluate.
Prompt line: Determine from records and report mass density for Cc1ccc(C)s1
Response line: 993.13

* * *

Reported mass density values for the following compounds.
# condition_info: 323.15 K; 5000 kPa; Liquid; Vibrating tube method
The response must be a number in kg/m3 with no trailing unit.

# structure_string, mass density / kg/m3
measured = [
    ("Cc1cccs1", 992.24),
    ("Cc1ccc(C)s1", 959.26),
    ("Cc1ccsc1", 993.9),
]

Now look at this one.
Prompt line: Please give the documented mass density of c1ccsc1
Response line: 1033.54

* * *

# condition_info: 293.15 K; 60000 kPa; Liquid; Vibrating tube method
reported_property: mass density (kg/m3)
API: value field is a number in kg/m3; no unit string.

# compound, reported_property, unit_name, recorded_result
measured = [
    ("Cc1ccsc1 [3-methylthiophene]", "mass density", "kg/m3", 1060.96),
    ("Cc1ccc(C)s1 [2,5-dimethylthiophene]", "mass density", "kg/m3", 1025.15),
    ("c1ccsc1 [thiophene]", "mass density", "kg/m3", 1106.72),
]

Here's the next entry for you.
Prompt line: Retrieve mass density measured for Cc1cccs1 [2-methylthiophene] and print it.
Response line: 1060.64

* * *

# condition_info: 298.15 K; 50000 kPa; Liquid; Vibrating tube method
Some compounds, each annotated with its measured mass density.
State just the number; it will be interpreted in kg/m3.

Answered cases to consult:
# structure_string, mass density (kg/m3)
rows = [
    ("c1ccsc1", 1095.73),
    ("Cc1cccs1", 1050.33),
    ("Cc1ccc(C)s1", 1015.2),
]

Consider the record given below.
Prompt line: Item Cc1ccsc1 : provide mass density
Response line: 1050.84

* * *

# condition_info: 303.15 K; 7000 kPa; Liquid; Vibrating tube method
± gives the expanded uncertainty stated by the source.
reported_property: mass density
A bare number is not enough; add the unit after it.

Before answering, review these 3 worked examples.
# structure_string, mass density
rows = [
    ("Cc1ccsc1", "1016.43 ± 0.51 kg/m3"),
    ("Cc1ccc(C)s1", "980.88 ± 0.5 kg/m3"),
    ("Cc1cccs1", "1015.23 ± 0.52 kg/m3"),
]

Turning to the following compound.
Prompt line: Look up mass density of c1ccsc1 and report it.
Response line: 1058.82 ± 0.5 kg/m3

* * *

# condition_info: 328.15 K; 15000 kPa; Liquid; Vibrating tube method
reported_property: mass density (kg/m3)
Write down the numeric answer in kg/m3 and omit the unit.

# compound, unit_name, recorded_result
records = [
    ("Cc1cccs1 [2-methylthiophene]", "kg/m3", 996.12),
    ("c1ccsc1 [thiophene]", "kg/m3", 1037.33),
    ("Cc1ccc(C)s1 [2,5-dimethylthiophene]", "kg/m3", 963.27),
]

// moving on: another record for mass density
Prompt line: Specify mass density for Cc1ccsc1 [3-methylthiophene] and stop.
Response line: 997.7
